Test: Free concentration and protein binding in spiked human serum samples (Table S5)
Settings: human, serum, PB, S5a, serum of patient 13 (non-critically ill) spiked 200 mg/L, measured c 214 mg/L; calibration with sheep serum
Description: Subsequently, samples were mixed for 10 s, stored in an ultrasonic bath for 10 min at 40 °C, then centrifuged at 8000× g for 5 min. Next, 100 µL of the resulting supernatant was further diluted with 500 µL water with 0.1% formic acid. […] Details are described in the Supplementary Materials (Figures S1–S3). Table S5. […] In order to evaluate the (a) Spiked human serum samples of 14 patients (8 critically ill and 6 non-critically ill) after calibration with sheep serum. […]
quantity_kind: fraction unbound
When you answer, write just the number.

If you can, please state the reported fraction unbound value of CN[C@H]1C(=O)N[C@@H]2Cc3ccc(cc3)Oc3cc4cc(c3O[C@@H]3O[C@H](C(=O)O)[C@@H](O)[C@H](O)[C@H]3NC(=O)CCCCCCCCC(C)C)Oc3ccc(cc3Cl)[C@@H](O)[C@@H]3NC(=O)[C@H](NC(=O)[C@@H]4NC(=O)[C@@H](NC2=O)c2cc(cc(O)c2Cl)Oc2cc1ccc2O)c1ccc(O)c(c1)-c1c(O[C@H]2O[C@H](CO)[C@@H](O)[C@H](O)[C@@H]2O)cc(O)cc1[C@@H](C(=O)NCCCN(C)C)NC3=O [dalbavancin, Dalbavancin] .
0.03
